Tested on: S. aureus ATCC 6538
Experiment: MBC by Miles-Misra drop-plate method, S. aureus
Type: cell-based
Settings: Staphylococcus aureus, ATCC6538, Zinc (50 μM); read-out: S. aureus ATCC 6538 MBC
I'd appreciate it if you could supply MBC values for the items below.
Numbers only, in µg/mL.

MOLECULE | UNIT ABBREV | MBC
O=S(=O)(Nc1cccc2ccc(CNc3cc(Cl)cc(Cl)c3O)nc12)c1ccc(C(F)(F)F)cc1 | µg/mL | 8
O=S(=O)(Nc1cccc2ccc(CNc3ccccc3O)nc12)c1ccc(C(F)(F)F)cc1 | µg/mL | 32
O=S(=O)(Nc1cccc2ccc(CNCCN3CCCCC3)nc12)c1ccc(C(F)(F)F)cc1 | µg/mL | 16

Could I get MBC for every one of these entries?
1. O=S(=O)(Nc1cccc2ccc(CNCCCO)nc12)c1ccc(C(F)(F)F)cc1
2. O=[N+]([O-])c1ccc(O)c(NCc2ccc3cccc(NS(=O)(=O)c4ccc(C(F)(F)F)cc4)c3n2)c1
3. O=C(N/N=C/c1ccc2cccc(NS(=O)(=O)c3ccc(C(F)(F)F)cc3)c2n1)c1ccncc1
4. CN(C)Cc1ccc2cccc(NS(=O)(=O)c3ccc(C(F)(F)F)cc3)c2n1.Cl [ZDR022-HCl]

Output:
128
128
128
256

====

Give MIC for every item shown.
Tested on: E. coli ATCC 10596
Assay: MIC by broth microdilution, E. coli
Assay type: cell-based
Conditions: Escherichia coli, ATCC 10536 / ATCC 10596, Zinc (50 μM); read-out: E. coli ATCC 10536 MIC

Take a look at these entries with their results.
SAMPLE SMILES | TESTED TARGET | PARAMETER MEASURED | VALUE REPORTED
COC(=O)c1ccc(S(=O)(=O)Nc2cccc3ccc(CN(C)C)nc23)cc1 | E. coli ATCC 10596 | MIC | > 256 mg/L
CC(C)(C)OC(=O)N=C(NCc1ccc2cccc(NS(=O)(=O)c3ccc(C(F)(F)F)cc3)c2n1)NC(=O)OC(C)(C)C | E. coli ATCC 10596 | MIC | > 256 mg/L
CN(C)Cc1ccc2cccc(NS(=O)(=O)c3ccccc3)c2n1 | E. coli ATCC 10596 | MIC | > 256 mg/L
O=S(=O)(Nc1cccc2ccc(CNCCN3CCCCC3)nc12)c1ccc(C(F)(F)F)cc1 | E. coli ATCC 10596 | MIC | > 256 mg/L
CCCCNCc1ccc2cccc(NS(=O)(=O)c3ccc(C(F)(F)F)cc3)c2n1 | E. coli ATCC 10596 | MIC | > 256 mg/L
O=S(=O)(Nc1cccc2ccc(CNc3cc(Cl)cc(Cl)c3O)nc12)c1ccc(C(F)(F)F)cc1 | E. coli ATCC 10596 | MIC | > 256 mg/L
CN(C)Cc1ccc2cccc(NS(=O)(=O)c3ccccc3OC(F)(F)F)c2n1 | E. coli ATCC 10596 | MIC | > 256 mg/L
O=S(=O)(Nc1cccc2ccc(CNCCOCCO)nc12)c1ccc(C(F)(F)F)cc1 | E. coli ATCC 10596 | MIC | 256 mg/L
CN(C)Cc1ccc2cccc(NS(=O)(=O)c3cccc(S(N)(=O)=O)c3)c2n1 | E. coli ATCC 10596 | MIC | > 256 mg/L
O=S(=O)(Nc1cccc2ccc(CNCCc3ccccn3)nc12)c1ccc(C(F)(F)F)cc1 | E. coli ATCC 10596 | MIC | > 256 mg/L

Give MIC for all compounds that follow.
1. CC(=O)c1cccc(S(=O)(=O)Nc2cccc3ccc(CN(C)C)nc23)c1
2. CN(C)Cc1ccc2cccc(NS(=O)(=O)c3cccc(Cl)c3Cl)c2n1
3. O=S(=O)(Nc1cccc2ccc(CN3CCCCCC3)nc12)c1ccc(C(F)(F)F)cc1
4. CC(=O)c1ccc(S(=O)(=O)Nc2cccc3ccc(CN(C)C)nc23)cc1

Output:
1. > 256 mg/L
2. > 256 mg/L
3. 256 mg/L
4. > 256 mg/L

Below are some compounds; for each one, tell me its MIC.
1. CN(C)Cc1ccc2cccc(NS(=O)(=O)c3ccc(S(N)(=O)=O)cc3)c2n1
2. COCCOCCNCc1ccc2cccc(NS(=O)(=O)c3ccc(C(F)(F)F)cc3)c2n1
3. CN(C)Cc1ccc2cccc(NS(=O)(=O)c3cccc(F)c3)c2n1

Output:
["> 256 mg/L", "256 mg/L", "> 256 mg/L"]

Record CN(C)Cc1ccc2cccc(NS(=O)(=O)c3ccccc3C(F)(F)F)c2n1 has E. coli ATCC 10596 MIC equal to > 256 mg/L

====

Tested on: S. aureus ATCC 6538
Test: MIC by broth microdilution, S. aureus
Format: cell-based
Conditions: Staphylococcus aureus, ATCC6538, No Zinc; read-out: S. aureus ATCC 6538 MIC
PARAMETER MEASURED: MIC

A selection of reference data follows.
MOLECULE | MIC
CN(C)Cc1ccc2cccc(NS(=O)(=O)c3ccccc3Cl)c2n1 | > 256 µg/mL
CN(C)Cc1ccc2cccc(NS(=O)(=O)c3cccc4cnccc34)c2n1 | > 256 µg/mL
O=S(=O)(Nc1cccc2ccc(CNC(CO)(CO)CO)nc12)c1ccc(C(F)(F)F)cc1 | 32 µg/mL
CC(C)(C)OC(=O)N1CCCC(C(=O)N/N=C/c2ccc3cccc(NS(=O)(=O)c4ccc(C(F)(F)F)cc4)c3n2)C1 (mixture of isomers) | > 256 µg/mL
Cc1noc(C)c1S(=O)(=O)Nc1cccc2ccc(CN(C)C)nc12 | > 256 µg/mL
CC(=O)Nc1cccc(S(=O)(=O)Nc2cccc3ccc(CN(C)C)nc23)c1 | > 256 µg/mL

# batch size: 3; output MIC per entry
1. CN(C)Cc1ccc2cccc(NS(=O)(=O)Cc3ccc(Cl)nc3)c2n1
2. CN(C)Cc1ccc2cccc(NS(=O)(=O)c3cccc4cccnc34)c2n1
3. CN(C)Cc1ccc2cccc(NS(=O)(=O)c3cccc(Cl)c3)c2n1

Output:
["> 256 µg/mL", "> 256 µg/mL", "256 µg/mL"]

====

Test system: S. aureus ATCC 6538
Assay: MIC by broth microdilution, S. aureus
Format: cell-based
Settings: Staphylococcus aureus, ATCC6538, No Zinc; read-out: S. aureus ATCC 6538 MIC
Procedure: Antibacterial susceptibility testing was performed in triplicate (biological) by measuring minimum inhibitory concentrations (MICs) by broth microdilution in 96-well flat bottom microtiter plates (ThermoFisher Scientific, New Zealand). […] After 24 h incubation at 37° C. and 200 rpm, the OD600 of wells were read using a Varioskan Flash plate reader (ThermoFisher Scientific, New Zealand). […]
PARAMETER MEASURED: MIC (µg/mL)
Numbers only, in µg/mL.

SAMPLE SMILES | UNIT ABBREV | MIC
O=Cc1ccc2cccc(NS(=O)(=O)c3ccc(C(F)(F)F)cc3)c2n1 | µg/mL | 8
CC(=O)NCCNCc1ccc2cccc(NS(=O)(=O)c3ccc(C(F)(F)F)cc3)c2n1 | µg/mL | 64
CN(C)Cc1ccc2cccc(NS(=O)(=O)c3cccc(Cl)c3Cl)c2n1 | µg/mL | 64

Would you be so kind as to report MIC for each listed record?
1. CN(C)Cc1ccc2cccc(NS(=O)(=O)c3cccc(Br)c3)c2n1
2. COC(=O)c1cccc(S(=O)(=O)Nc2cccc3ccc(CN(C)C)nc23)c1

Output:
[64, 256]

====

System: S. aureus ATCC 6538
Assay: MBC by Miles-Misra drop-plate method, S. aureus
Type: cell-based
Conditions: Staphylococcus aureus, ATCC6538, read-out: S. aureus ATCC 6538 MBC, Zinc (50 μM)
Counter-ions that a name gives are not always drawn.
Consider the following compounds; for each one, report its MBC.

COMPOUND | TESTED TARGET | MBC
CN1CCN(CCNCc2ccc3cccc(NS(=O)(=O)c4ccc(C(F)(F)F)cc4)c3n2)CC1 [ZDR114, di-trifluoroacetate] | S. aureus ATCC 6538 | 64 µg/mL
CN(C)CCCNC(=O)c1ccc2cccc(NS(=O)(=O)c3ccc(C(F)(F)F)cc3)c2n1 [ZDR224, trifluoroacetate] | S. aureus ATCC 6538 | 32 µg/mL
N=C(N)NCc1ccc2cccc(NS(=O)(=O)c3ccc(C(F)(F)F)cc3)c2n1 [ZDR187, trifluoroacetate] | S. aureus ATCC 6538 | 32 µg/mL
O=C(N/N=C/c1ccc2cccc(NS(=O)(=O)c3ccc(C(F)(F)F)cc3)c2n1)C1CCCNC1 (mixture of isomers) [ZDR124] | S. aureus ATCC 6538 | > 256 µg/mL
CN(C)CCCNCc1ccc2cccc(NS(=O)(=O)c3ccc(C(F)(F)F)cc3)c2n1 [ZDR090, di-trifluoroacetate] | S. aureus ATCC 6538 | 32 µg/mL

Give MBC for all compounds that follow.
1. O=C(CNCc1ccc2cccc(NS(=O)(=O)c3ccc(C(F)(F)F)cc3)c2n1)NCCN1CCCCC1 [ZDR269, di-trifluoroacetate]
2. O=S(=O)(Nc1cccc2ccc(CNCCCN3CCCCC3)nc12)c1ccc(C(F)(F)F)cc1 [ZDR115, di-trifluoroacetate]
3. N=C(N)NCCNCc1ccc2cccc(NS(=O)(=O)c3ccc(C(F)(F)F)cc3)c2n1 [ZDR143, di-trifluoroacetate]

Output:
1: 128 µg/mL; 2: 16 µg/mL; 3: 16 µg/mL

Parameters: items (list). Returns: MBC for each item.
1. CN1CCN(CCCNCc2ccc3cccc(NS(=O)(=O)c4ccc(C(F)(F)F)cc4)c3n2)CC1 [ZDR117, di-trifluoroacetate]
2. CN(C)CCCNC(=O)CNCc1ccc2cccc(NS(=O)(=O)c3ccc(C(F)(F)F)cc3)c2n1 [ZDR261, di-trifluoroacetate]

Output:
64 µg/mL
64 µg/mL
